Parameter: TGI. Scope: all listed entries.
system: UO-31 renal; test: NCI tumour cell line growth inhibition, 48 h

Sample records with TGI:
> print(dat)
                                   molecule  assay.value
1                   CSc1nc2nccnc2c(=O)[nH]1     > 100 µM
2  CCCCCCCCCCCCCCCCCC1=NC(C)(C)CN1C(C)(C)CO      3.43 µM
3  CC1(C)N=C(N)N=C(N)N1c1cccc(CCCCc2ccc(Cl)c(S(=O)(=O)F)c2)c1     > 100 µM
4  C=CC(=C)CCC(Br)C(C)(C)Br (stereo not given)     > 100 µM

q: Name the reported TGI value associated with the molecule CN1C(c2ccccc2)CC(=NO)CC1c1ccccc1 (stereo not given)
a: > 100 µM

q: Okay, and Oc1ccc(O)c(-n2cccn2)c1 ?
a: > 100 µM

q: Okay, and COc1ccc(/C=C/c2cc(OC)c(OC)c(OC)c2)cc1OC ?
a: > 100 µM

q: Okay, and COc1cc(-c2n/c(=C\c3c(O)[nH]c4ccccc34)cc3c2=Nc2ccccc2-3)ccc1F ?
a: > 100 µM

q: Okay, and Cc1ccc(C(=O)C2C=C(c3ccc(C)cc3)SC3C=CCC32)cc1 (stereo not given) ?
a: 29.6 µM
